# Test system: Ba/F3 cells of EGFR-del19
# test-name: Drug sensitivity screening at 100 nM, Ba/F3 EGFR-del19
# Format: cell-based
# applied-conditions: 100 nM, 72 h, DMSO = 100; experiment 3
# Description: After the incubation, cell viability was measured using CellTiter-Glo assay. The relative cell viability was calculated as a ratio of each value to that of the DMSO control.
Reported Relative cell viability (% of DMSO control) in del19 Ba/F3 cells by item:
quantity-kind: Relative cell viability (% of DMSO control) in del19 Ba/F3 cells

* Nc1ncnc2c1c(-c1cccc(OCc3ccccc3)c1)cn2[C@H]1C[C@@H](CN2CCC2)C1 [AEW541] | 118.474
* COc1cc(N2CCC(N)CC2)ccc1Nc1ncc(Cl)c(-c2c[nH]c3ccccc23)n1 [AZD3463] | 37.0414
* O=C(C(c1ccccc1)c1ccccc1)N1CCN(CC(O)COc2cccc3ncccc23)CC1 (stereo not shown) [MS209] | 104.789
* COc1cc(N2CCC(N3CCN(C)CC3)CC2)ccc1Nc1ncnc(Nc2ccccc2S(=O)(=O)C(C)C)n1 [ASP3026] | 101.38
* COC(=O)c1ccc2c(c1)NC(=O)/C2=C(\Nc1ccc(N(C)C(=O)CN2CCN(C)CC2)cc1)c1ccccc1 [BIBF1120] | 102.157
* C=CCNC1=C2C[C@@H](C)C[C@H](OC)[C@H](O)[C@@H](C)/C=C(\C)[C@H](OC(N)=O)[C@@H](OC)/C=C\C=C(/C)C(=O)NC(=CC1=O)C2=O [17-AAG] | 55.225
* COc1cc2nccc(Oc3ccc(NC(=O)C4(C(=O)Nc5ccc(F)cc5)CC4)cc3)c2cc1OC [XL184] | 111.655

* * *

# System: Ba/F3 cells of EGFR-del19
# test-name: Drug sensitivity screening at 100 nM, Ba/F3 EGFR-del19
# Assay type: cell-based
# applied-conditions: Mus musculus, BaF3, 72 h, 100 nM inhibitor, 72 h, DMSO = 100; mean of three independent experiments (Fig. 1a data); read-out: Relative cell viability (ratio to DMSO control), del19
quantity-kind: viability at 0.1 µM (%)

* C[C@H]1Oc2cc(cnc2N)-c2c(nn(C)c2C#N)CN(C)C(=O)c2ccc(F)cc21 | 106
* CCCS(=O)(=O)Nc1ccc(F)c(C(=O)c2c[nH]c3ncc(-c4ccc(Cl)cc4)cc23)c1F | 108
* Cc1[nH]c(/C=C2\C(=O)Nc3ccc(S(=O)(=O)Cc4c(Cl)cccc4Cl)cc32)c(C)c1C(=O)N1CCC[C@@H]1CN1CCCC1 | 114
* CC(=O)Nc1cccc(-n2c(=O)n(C3CC3)c(=O)c3c(Nc4ccc(I)cc4F)n(C)c(=O)c(C)c32)c1 | 0.872
* COc1cc(N2CCC(N3CCN(C)CC3)CC2)ccc1Nc1ncc(Cl)c(Nc2ccccc2P(C)(C)=O)n1 | 10.3
* Cn1cnc2c(F)c(Nc3ccc(Br)cc3Cl)c(C(=O)NOCCO)cc21 | 50.9
* CCc1cc2c(cc1N1CCC(N3CCOCC3)CC1)C(C)(C)c1[nH]c3cc(C#N)ccc3c1C2=O | 106
* COc1cc(N2CCC(N)CC2)ccc1Nc1ncc(Cl)c(-c2c[nH]c3ccccc23)n1 | 34.9
* CC(=O)O[C@H]1C(=O)[C@@]2(C)[C@H]([C@H](OC(=O)c3ccccc3)[C@]3(O)C[C@H](OC(=O)[C@H](O)[C@@H](NC(=O)c4ccccc4)c4ccccc4)C(C)=C1C3(C)C)[C@]1(OC(C)=O)CO[C@@H]1C[C@@H]2O | 51.9
* COc1cc2c(Oc3ccc(NC(=O)C4(C(=O)Nc5ccc(F)cc5)CC4)cc3F)ccnc2cc1OCCCN1CCOCC1 | 96.4
* CS(=O)(=O)N1CCN(Cc2cc3nc(-c4cccc5[nH]ncc45)nc(N4CCOCC4)c3s2)CC1 | 40.1
* CO[C@H]1C[C@@H]2CC[C@@H](C)[C@@](O)(O2)C(=O)C(=O)N2CCCC[C@H]2C(=O)O[C@H]([C@H](C)C[C@@H]2CC[C@@H](O)[C@H](OC)C2)CC(=O)[C@H](C)/C=C(\C)[C@@H](O)[C@@H](OC)C(=O)[C@H](C)C[C@H](C)/C=C/C=C/C=C/1C | 34.3
* COc1cc2c(Nc3ccc(Br)cc3F)ncnc2cc1OCC1CCN(C)CC1 | 1.62
* CO[C@H]1C[C@@H]2CC[C@@H](C)[C@@](O)(O2)C(=O)C(=O)N2CCCC[C@H]2C(=O)O[C@H]([C@H](C)C[C@@H]2CC[C@@H](OCCO)[C@H](OC)C2)CC(=O)[C@H](C)/C=C(\C)[C@@H](O)[C@@H](OC)C(=O)[C@H](C)C[C@H](C)/C=C/C=C/C=C/1C | 29.9
* Cc1cc(Nc2ncc(Cl)c(Nc3ccccc3S(=O)(=O)C(C)C)n2)c(OC(C)C)cc1C1CCNCC1 | 96.5
* COc1cc(N2CCC(N3CCN(C)CC3)CC2)ccc1Nc1ncnc(Nc2ccccc2S(=O)(=O)C(C)C)n1 | 98.3
* COc1cc2nccc(Oc3ccc(NC(=O)C4(C(=O)Nc5ccc(F)cc5)CC4)cc3)c2cc1OC | 110
* Nc1ncnc2c1c(-c1cccc(OCc3ccccc3)c1)cn2[C@H]1C[C@@H](CN2CCC2)C1 | 105
* COC(=O)c1ccc2c(c1)NC(=O)/C2=C(\Nc1ccc(N(C)C(=O)CN2CCN(C)CC2)cc1)c1ccccc1 | 97
* COc1cc(N2CCC(N3CCN(C)CC3)CC2)ccc1Nc1ncc(Cl)c(Nc2ccccc2S(=O)(=O)C(C)C)n1 | 105

* * *

Reported pIC50 by item:
# Tested on: Ba/F3 cells expressing EGFR-C797S/T790M/del19
# test-name: CellTiter-Glo cell viability assay, Ba/F3 EGFR-C797S/T790M/del19
# Assay type: cell-based
# applied-conditions: Mus musculus, BaF3, 72 h, Fig. 3b,c; 72 h
pIC50: −log10 of the molar value.
quantity-kind: pIC50

* COc1cc(N2CCC(N)CC2)ccc1Nc1ncc(Cl)c(-c2c[nH]c3ccccc23)n1 | 6.88
* COc1cc(N2CCC(N3CCN(C)CC3)CC2)ccc1Nc1ncnc(Nc2ccccc2S(=O)(=O)C(C)C)n1 | 5.82
* Cc1cc(Nc2ncc(Cl)c(Nc3ccccc3S(=O)(=O)C(C)C)n2)c(OC(C)C)cc1C1CCNCC1 | 6.11

* * *

# System: Ba/F3 cells of EGFR-del19
# test-name: Drug sensitivity screening at 100 nM, Ba/F3 EGFR-del19
# Type: cell-based
# applied-conditions: 100 nM, 72 h, DMSO = 100; experiment 1
quantity-kind: Relative cell viability (% of DMSO control) in del19 Ba/F3 cells

- CCCS(=O)(=O)Nc1ccc(F)c(C(=O)c2c[nH]c3ncc(-c4ccc(Cl)cc4)cc23)c1F [Vemurafenib, vemurafenib]: 102.039
- CC(=O)O[C@H]1C(=O)[C@@]2(C)[C@H]([C@H](OC(=O)c3ccccc3)[C@]3(O)C[C@H](OC(=O)[C@H](O)[C@@H](NC(=O)c4ccccc4)c4ccccc4)C(C)=C1C3(C)C)[C@]1(OC(C)=O)CO[C@@H]1C[C@@H]2O [paclitaxel]: 51.8383
- O=C(C(c1ccccc1)c1ccccc1)N1CCN(CC(O)COc2cccc3ncccc23)CC1 (stereo not shown) [MS209]: 97.9213
- CS(=O)(=O)N1CCN(Cc2cc3nc(-c4cccc5[nH]ncc45)nc(N4CCOCC4)c3s2)CC1 [GDC0941]: 34.6965
- COc1cc2nccc(Oc3ccc(NC(=O)NC4CC4)c(Cl)c3)c2cc1C(N)=O [E7080]: 87.8792
- COc1cc(N2CCC(N3CCN(C)CC3)CC2)ccc1Nc1ncnc(Nc2ccccc2S(=O)(=O)C(C)C)n1 [ASP3026]: 92.7195
- COC(=O)c1ccc2c(c1)NC(=O)/C2=C(\Nc1ccc(N(C)C(=O)CN2CCN(C)CC2)cc1)c1ccccc1 [BIBF1120]: 91.4241
- Cc1nc2ccc(-n3ncc(C(=O)c4cc5ccccc5[nH]4)c3N)cc2[nH]1 [CH5183284]: 100.01
- CO[C@H]1C[C@@H]2CC[C@@H](C)[C@@](O)(O2)C(=O)C(=O)N2CCCC[C@H]2C(=O)O[C@H]([C@H](C)C[C@@H]2CC[C@@H](O)[C@H](OC)C2)CC(=O)[C@H](C)/C=C(\C)[C@@H](O)[C@@H](OC)C(=O)[C@H](C)C[C@H](C)/C=C/C=C/C=C/1C [Rapamycin, rapamycin]: 26.4621
- Nc1ncnc2c1c(-c1cccc(OCc3ccccc3)c1)cn2[C@H]1C[C@@H](CN2CCC2)C1 [AEW541]: 86.142
- C=CCNC1=C2C[C@@H](C)C[C@H](OC)[C@H](O)[C@@H](C)/C=C(\C)[C@H](OC(N)=O)[C@@H](OC)/C=C\C=C(/C)C(=O)NC(=CC1=O)C2=O [17-AAG]: 47.4299
- CCc1cc2c(cc1N1CCC(N3CCOCC3)CC1)C(C)(C)c1[nH]c3cc(C#N)ccc3c1C2=O [Alectinib, alectinib]: 98.9355
- CC(=O)Nc1cccc(-n2c(=O)n(C3CC3)c(=O)c3c(Nc4ccc(I)cc4F)n(C)c(=O)c(C)c32)c1 [Trametinib, trametinib]: 0.7444
